FYI, the data here is from patent US20070128192A1.

target: human IL-13 (human) (UniProt P35225)
Sequence (P35225 other isoform, or with tags, fused parts or gaps): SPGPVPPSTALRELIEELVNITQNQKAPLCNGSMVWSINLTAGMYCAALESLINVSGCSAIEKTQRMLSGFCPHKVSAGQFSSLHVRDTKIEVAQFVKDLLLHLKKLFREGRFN
protocol.text: cell-based or functional assay
As shown below, each of these binders has a reported IC50, TF-1 cell proliferation assay value.
Form entry: enter the amount, then its unit.

Recorded result, BAK1184C8 scFv (scFv, V domains shown, part only, scFv linker not given) VH: QVQLVQSGAEVKKPGASVKVSCKASGYTFTNYGLSWVRQAPGQGLEWMGWISGSNGYTSYGQEFQGRVTMTTDTSTSTAYMELRSLRSDDTAVYYCARDSSSSWARWFFDLWGRGTLVTVSS VL: SYVLTQPPSVSVAPGKTARITCGGNIIGSKLVHWYQQKPGQAPVLVIYDDGDRPSGIPERFSGSNSGNTATLTISRVEAGDEADYYCQVWDTGSDPVVFGGGTKLTVL , IC50, TF-1 cell proliferation assay: 0.2 nM

Recorded result, BAK1167F4 scFv (scFv, V domains shown, part only, scFv linker not given) VH: QVQLVQSGAEVKKPGASVKVSCKASGYTFIDTGVSWVRQAPGQGLEWMGWISANNGDTNYGQEFQGRVTMTTDTSTSTAYMELRSLRSDDTAVYYCARDSSSSWARWFFDLWGRGTLVTVSS VL: SYVLTQPPSVSVAPGKTARITCGGNIIGSKLVHWYQQKPGQAPVLVIYDDGDRPSGIPERFSGSNSGNTATLTISRVEAGDEADYYCQVWDTGSDPVVFGGGTKLTVL , IC50, TF-1 cell proliferation assay: 0.2 nM

Continue with the next binder.
Recorded result, BAK1105H3 scFv (scFv, V domains shown, part only, scFv linker not given) VH: QVQLVQSGAEVKKPGASVKVSCKASGYTFTNYGLSWVRQAPGQGLEWMGWISGLNGETLYGQEFQGRVTMTTDTSTSTAYMELRSLRSDDTAVYYCARDSSSSWARWFFDLWGRGTLVTVSS VL: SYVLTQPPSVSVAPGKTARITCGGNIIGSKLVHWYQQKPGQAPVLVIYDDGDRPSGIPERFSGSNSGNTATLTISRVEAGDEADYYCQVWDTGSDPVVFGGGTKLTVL , IC50, TF-1 cell proliferation assay: 0.2 nM
